Quick reference for inhibition among some molecules
- target of assay: Protein deacetylase HDAC6 (Homo sapiens)
- Sequence (whole entry): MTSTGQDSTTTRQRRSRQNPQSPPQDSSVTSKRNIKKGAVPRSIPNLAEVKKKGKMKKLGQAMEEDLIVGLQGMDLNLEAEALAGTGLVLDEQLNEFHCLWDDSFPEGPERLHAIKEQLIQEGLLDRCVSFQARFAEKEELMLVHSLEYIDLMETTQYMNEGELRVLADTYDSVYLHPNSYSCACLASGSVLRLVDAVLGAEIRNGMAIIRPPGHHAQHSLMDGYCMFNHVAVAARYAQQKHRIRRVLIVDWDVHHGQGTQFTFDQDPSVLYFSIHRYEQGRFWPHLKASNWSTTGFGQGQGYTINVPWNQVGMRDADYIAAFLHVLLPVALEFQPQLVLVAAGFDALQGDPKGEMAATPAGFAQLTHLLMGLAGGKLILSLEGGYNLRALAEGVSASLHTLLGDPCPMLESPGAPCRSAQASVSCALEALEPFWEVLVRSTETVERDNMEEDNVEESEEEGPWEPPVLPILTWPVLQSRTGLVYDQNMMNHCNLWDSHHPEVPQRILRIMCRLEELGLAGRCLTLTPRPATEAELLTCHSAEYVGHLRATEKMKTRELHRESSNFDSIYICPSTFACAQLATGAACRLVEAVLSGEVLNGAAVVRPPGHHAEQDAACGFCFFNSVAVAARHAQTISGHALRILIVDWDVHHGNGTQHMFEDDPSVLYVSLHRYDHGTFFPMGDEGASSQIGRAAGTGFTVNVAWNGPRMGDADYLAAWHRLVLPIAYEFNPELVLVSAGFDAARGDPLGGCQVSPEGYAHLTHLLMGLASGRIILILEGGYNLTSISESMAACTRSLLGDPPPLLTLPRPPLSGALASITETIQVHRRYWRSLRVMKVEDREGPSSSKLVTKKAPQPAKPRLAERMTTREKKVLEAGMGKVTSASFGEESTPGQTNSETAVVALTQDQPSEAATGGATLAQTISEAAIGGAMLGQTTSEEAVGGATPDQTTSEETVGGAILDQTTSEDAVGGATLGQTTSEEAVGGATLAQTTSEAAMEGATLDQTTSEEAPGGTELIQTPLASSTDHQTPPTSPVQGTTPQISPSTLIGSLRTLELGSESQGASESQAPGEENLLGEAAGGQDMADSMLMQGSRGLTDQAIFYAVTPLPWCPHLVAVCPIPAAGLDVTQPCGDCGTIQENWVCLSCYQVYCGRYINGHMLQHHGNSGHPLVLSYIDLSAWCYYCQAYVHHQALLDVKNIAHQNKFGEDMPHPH
- applied conditions: at 10 µM
Screen size: about 5,600 compounds; about 390 (7%) showed an effect of 50% or more. The list comes from a sample in which strong results are over-represented; it also holds close analogues and randomly drawn compounds.

molecule: CC(C)C(=O)SCCCCC[C@H](NC(=O)OC(C)(C)C)C(=O)NC12CC3CC(CC(C3)C1)C2
inhibition (%): 52
--
molecule: N#[N+]/C=C(\[O-])CC[C@H](N)C(=O)O
inhibition (%): 28.2
--
molecule: O=C1c2cc(Cl)ccc2OC2CCON12 (stereo not drawn)
inhibition (%): 8.29
--
molecule: Cc1ccc(Cl)c(OCC(O)CNC(C)(C)C)c1 (stereo not drawn)
inhibition (%): 14.8
--
molecule: CCOC(=O)Nc1ccc2c(c1)N(C(=O)CCN(CC)CC)c1ccccc1S2
inhibition (%): 14.5
--
molecule: CCCC(CCC)C(=O)NCc1ccc2c(cnn2-c2ccccc2OC)c1
inhibition (%): -9.99
--
molecule: O=C1NC(=S)NC(=O)C1C(=O)Nc1ccccc1
inhibition (%): 96.3
--
molecule: O=C1c2ccccc2C(=O)c2ccccc21
inhibition (%): 44.4
--
molecule: CC(C)c1cnn2c(NCc3ccccc3)cc(NCCCCCCN)nc12
inhibition (%): 61.1
--
molecule: CN(C)[C@@H](CCOc1cccc2ccccc12)c1ccccc1
inhibition (%): 53
--
molecule: N=C(Nc1ccccc1)c1cccs1
inhibition (%): 37.1
--
molecule: c1ccc(C2(c3ccccc3)CC2=C2NCCN2)cc1
inhibition (%): 17
--
molecule: O=C(O[C@@H]1C[C@@H]2C[C@H]3C[C@H](C1)N2CC3=O)c1c[nH]c2ccccc12
inhibition (%): 61.3
